Test system: SEM cells
run_description: cell viability relative to DMSO control; higher = less cytotoxic
run_parameters: RPMI 5 mM glucose + 10% dialyzed FBS; 48 h; 0.00234 µM
observable: cell viability (%)
Answer with a number only, understood to be in %.

Input: Please supply the value of reported cell viability for the item Oc1ccc(OCc2ccccc2)cc1
Output: 114

Input: Please supply the value of reported cell viability for the item c1cc(-c2cnn3cc(-c4ccc(OCCN5CCCCC5)cc4)cnc23)ccn1
Output: 60.9

Input: Please supply the value of reported cell viability for the item O=C(/C=C/c1ccc(/C=C/C(=O)Nc2ccc(C3=NCCN3)cc2)cc1)Nc1ccc(C2=NCCN2)cc1
Output: 120

Input: Please supply the value of reported cell viability for the item CN(C)c1nc(Cc2ccc(NC(=O)c3ccc(C(F)(F)F)cc3)cc2)nc(N(C)C)c1CC(=O)O
Output: 118

Input: Please supply the value of reported cell viability for the item CCCCCCNC(=O)N1\C=C(F)/C(=O)NC1=O
Output: 108

Input: Please supply the value of reported cell viability for the item CCOC(=O)N1CCN(/[N+]([O-])=N/Oc2cc(O/N=[N+](\[O-])N3CCN(C(=O)OCC)CC3)c([N+](=O)[O-])cc2[N+](=O)[O-])CC1
Output: 113

Input: Please supply the value of reported cell viability for the item CCNC(=O)Nc1ccc(Oc2ncnc(N)c2/C=N/OC)cc1Cl
Output: 103

* * *

System: P12-Ichikawa
run_description: cell viability relative to DMSO control; higher = less cytotoxic
run_parameters: RPMI 5 mM glucose + 10% dialyzed FBS; 48 h; 1.71 µM
observable: cell viability (%)
Answer with a number only, understood to be in %.

The cases that follow already have their cell viability on record.
1) COc1ccc(F)c(F)c1C(=O)c1cnc(NC2CCN([S+](C)(=O)[O-])CC2)nc1N :: 78.2
2) C[C@@H]1CC[C@@]2(CC[C@]3(C)\C(=C/C[C@@H]4[C@@]5(C)CC[C@H](O)C(C)(C)[C@@H]5CC[C@@]34C)[C@@H]2[C@H]1C)C(O)=O :: 110

Input: Please supply the value of reported cell viability for the item CC(C)C1CCC(C(=O)N[C@H](Cc2ccccc2)C(=O)O)CC1 (stereo not given in full)
Output: 86.9

Input: Please supply the value of reported cell viability for the item COc1cc2c(cc1OC)[C@@H]1Cc3ccc(OC)c(OC)c3CN1CC2
Output: 117

Input: Please supply the value of reported cell viability for the item OC[C@H]1O[C@H](C[C@@H]1O)N2/C=C(C(=O)NC2=O)/C(F)(F)F
Output: 93.3

Input: Please supply the value of reported cell viability for the item CC1(C)SCCN([S+](=O)([O-])c2ccc(OCC#CCO)cc2)[C@H]1C(=O)NO
Output: 91.9

Input: Please supply the value of reported cell viability for the item C=CC(=O)Nc1cc2c(Nc3ccc(F)c(Cl)c3)ncnc2cc1C#CC(C)(C)N1CCN(C)CC1
Output: 95.7

Input: Please supply the value of reported cell viability for the item COC1=CC=C(C=C1)/C2=C(O)/C(=O)C3=C(O)C=C(O)C(=C3O2)CC=C(C)C
Output: 128

Input: Please supply the value of reported cell viability for the item Nc1ccc(C(=O)c2cc3c(ccc4ccccc43)[nH]2)cc1
Output: 74.9

Input: Please supply the value of reported cell viability for the item NC(=O)c1cccc(-c2cc(Nc3ccc(OC(F)(F)F)cc3)ncn2)c1
Output: 98.8

Input: Please supply the value of reported cell viability for the item C[C@H](CCC(=O)O)[C@H]1CC[C@H]2[C@@H]3[C@H](O)C[C@@H]4C[C@H](O)CC[C@]4(C)[C@H]3CC[C@]12C
Output: 87.2

Input: Please supply the value of reported cell viability for the item C[C@]12CCC3c4ccc(O)cc4CCC3C1CCC2=O (stereo not given in full)
Output: 80.7

Input: Please supply the value of reported cell viability for the item COc1c(Cl)cc2c([nH]c3cnccc32)c1NC(=O)c1cccnc1C
Output: 94.1

Input: Please supply the value of reported cell viability for the item CCC(CCCC)COC(=O)C(\C#N)=C(\c1ccccc1)c2ccccc2 (stereo not given)
Output: 99.5

Input: Please supply the value of reported cell viability for the item CC(C)(N)C(=O)N[C@H](COCc1ccccc1)C(=O)N1CCC2(CC1)CN([S+](C)(=O)[O-])c1ccccc12
Output: 114

Input: Please supply the value of reported cell viability for the item C/C1=C2/[N]3[Co+]456([OH])<-[N]7=C1[C@@H](CCC(N)=O)C(C)(C)/C7=C/C1=[N]->4C(=C(/C)C4=[N]->5[C@@](C)([C@H]3[C@H](CC(N)=O)[C@@]2(C)CCC(=O)NC[C@@H](C)OP(=O)([O-])O[C@H]2[C@@H](O)[C@@H](n3c[n]->6c5cc(C)c(C)cc53)O[C@@H]2CO)[C@@](C)(CC(N)=O)[C@@H]4CCC(N)=O)/[C@@](C)(CC(N)=O)[C@@H]1CCC(N)=O
Output: 76.7

Input: Please supply the value of reported cell viability for the item CCCN[C@H]1CCc2nc(N)sc2C1
Output: 93.6
